B1: Hairpin Ribozyme (parent)
chain: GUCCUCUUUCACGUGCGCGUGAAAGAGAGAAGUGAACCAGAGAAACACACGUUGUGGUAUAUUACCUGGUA

Variants of: B1
experimentSummary: self-cleavage, relative activity (ratio to wild type); higher = more cleavage; co-transcriptional
readoutType: self-cleavage

> print(dat)
    mutantdesignation    readouttype  result
 1          A39C U53A  self-cleavage   0.549
 2          C38U G56U  self-cleavage    0.14
 3          A28U G34U  self-cleavage    1.41
 4          G54U C66U  self-cleavage   0.211
 5           C3U U53C  self-cleavage   0.672
 6          C10A G19C  self-cleavage   0.509
 7          U14G G54C  self-cleavage   0.315
 8          U58C U70G  self-cleavage   0.759
 9          A30U G32A  self-cleavage   0.183
10          G57U U58A  self-cleavage   0.309
11          C18U A30G  self-cleavage   0.151
12           U7C U60C  self-cleavage   0.905
13          A26G A49G  self-cleavage   0.665
14          A23C U53G  self-cleavage   0.562
15          A31C U53A  self-cleavage   0.126
16          A30U G34C  self-cleavage    0.42
17          U33A A41C  self-cleavage  0.0532
18          G57C U63C  self-cleavage   0.272
19           U2A A43G  self-cleavage   0.138
20           C6U A23U  self-cleavage   0.615
21          U62A G69U  self-cleavage    0.04
22          G40A C50A  self-cleavage   0.194
23          G25U U53A  self-cleavage   0.647
24          A49U U52C  self-cleavage   0.202
25           C6U A23C  self-cleavage   0.608
26           U8G C46A  self-cleavage   0.134
27               A23U  self-cleavage   0.852
28          C46U A71C  self-cleavage   0.151
29          C48G U55C  self-cleavage   0.106
30          G51C G68C  self-cleavage   0.322
31           U7G G57A  self-cleavage   0.149
32          A35C U52A  self-cleavage    1.14
33          A30U U55A  self-cleavage  0.0256
34          A26U A41U  self-cleavage   0.989
35          G25C G54A  self-cleavage   0.239
36           U2A U70A  self-cleavage   0.331
37           U7C G13U  self-cleavage   0.788
38          A31C G42A  self-cleavage   0.164
39           G1A C38U  self-cleavage   0.115
40           U9A G42C  self-cleavage   0.187
41          U58G U67A  self-cleavage   0.181
42           U8A A44U  self-cleavage  0.0969
43          A26C U52G  self-cleavage   0.409
44          G56A U70A  self-cleavage   0.223
45          C37A G68C  self-cleavage   0.254
46          U20A A35C  self-cleavage   0.967
47          A26G C38G  self-cleavage   0.138
48          U14G G19C  self-cleavage   0.842
49          G40C C66G  self-cleavage   0.519
50          A49G U53G  self-cleavage    0.44
51               C37G  self-cleavage   0.363
52          G34A A41G  self-cleavage     1.3
53           U5G G27U  self-cleavage  0.0644
54          G68U G69A  self-cleavage     0.3
55          A23C A39G  self-cleavage   0.248
56          G15C A47C  self-cleavage   0.295
57          A47G G54C  self-cleavage   0.266
58          C12U G54A  self-cleavage   0.587
59          U33C A59U  self-cleavage   0.128
60           C3U A64G  self-cleavage   0.212
61          U14G C16G  self-cleavage   0.548
62           U7C C50U  self-cleavage   0.523
63           U5A U52C  self-cleavage   0.274
64          U20G U53A  self-cleavage   0.927
65          G17U G51U  self-cleavage   0.798
66          U20C G25A  self-cleavage   0.288
67          C46G A71C  self-cleavage   0.211
68          G13C U20G  self-cleavage   0.531
69          A45G A59C  self-cleavage   0.151
70          A23G A24G  self-cleavage   0.715
71          C10A C16A  self-cleavage   0.907
72          G13C C50G  self-cleavage   0.278
73          G32U A39C  self-cleavage   0.116
74          G51U U52A  self-cleavage     1.1
75          G29C A71U  self-cleavage    0.21
76            G1U C6A  self-cleavage   0.138
77          A44U C46A  self-cleavage   0.116
78          U33C G40C  self-cleavage  0.0896
79          G29U G51A  self-cleavage   0.139
80          G32C C46G  self-cleavage  0.0694
81          G19A U60C  self-cleavage    1.05
82          G17C C50G  self-cleavage   0.132
83           U7G A39C  self-cleavage    0.48
84          G32A G34C  self-cleavage    1.23
85          A36C U63G  self-cleavage  0.0757
86          A36G G57U  self-cleavage   0.317
87           U2G A39U  self-cleavage   0.162
88          G54C U70A  self-cleavage   0.216
89          U33G U63C  self-cleavage   0.217
90          C12A A64C  self-cleavage   0.101
91          A31U A43U  self-cleavage  0.0597
